assay_system: P2Y purinoceptor 1 (Meleagris gallopavo, UniProt P49652)
Sequence (P49652 whole entry): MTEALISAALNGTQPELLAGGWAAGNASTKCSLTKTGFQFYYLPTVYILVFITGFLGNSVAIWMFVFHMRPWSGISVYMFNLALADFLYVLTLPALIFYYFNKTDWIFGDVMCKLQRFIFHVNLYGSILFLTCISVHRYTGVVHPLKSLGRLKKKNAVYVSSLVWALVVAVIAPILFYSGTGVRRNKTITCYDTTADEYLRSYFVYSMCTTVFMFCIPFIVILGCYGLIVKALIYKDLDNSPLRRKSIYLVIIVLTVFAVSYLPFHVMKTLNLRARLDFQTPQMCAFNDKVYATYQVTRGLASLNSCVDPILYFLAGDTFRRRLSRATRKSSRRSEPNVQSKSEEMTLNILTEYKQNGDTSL
assay_text: In vitro antagonist activity at P2Y1 receptor in turkey erythrocyte membranes.
Format: functional, cell membranes
pIC50: −log10 of the molar value.
recorded_metric: pIC50

molecule=CNc1ncnc2c1ncn2[C@H]1C[C@@H]2OP(=O)(O)OP(=O)(O)OP(=O)(O)OP(=O)(O)OC[C@H]2O1 number=6.80
molecule=CNc1nc(I)nc2c1ncn2[C@H]1C[C@H](OP(=O)(O)O)[C@@H](COP(=O)(O)O)O1 number=6.05
molecule=CCSc1nc(NC)c2ncn([C@H]3C[C@H](OP(=O)(O)O)[C@@H](COP(=O)(O)O)O3)c2n1 number=6.01
molecule=Nc1ncnc2c1ncn2[C@@H]1C[C@H](COP(=O)(O)O)[C@@H](OP(=O)(O)O)C1 number=5.60
molecule=CSc1nc(N)c2ncn([C@H]3C[C@H](OP(=O)(O)O)[C@@H](COP(=O)(O)O)O3)c2n1 number=5.72

I = CCCCCCSc1nc(NC)c2ncn([C@H]3C[C@H](OP(=O)(O)O)[C@@H](COP(=O)(O)O)O3)c2n1
II = Cc1nc2c(N)ncnc2n1[C@H]1C[C@H](OP(=O)(O)O)[C@@H](COP(=O)(O)O)O1
III = Nc1nc2c(ncn2[C@H]2C[C@H](OP(=O)(O)O)[C@@H](COP(=O)(O)O)O2)c(=O)[nH]1
IV = C=CCSc1nc(NC)c2ncn([C@H]3C[C@H](OP(=O)(O)O)[C@@H](COP(=O)(O)O)O3)c2n1
Query: Rank order required: pIC50, descending. Returns: the labels listed in the requested order.
Reply: IV, I, III, II
(IV: 6.32, I: 5.47, III: 4.83, II: 4.12)

a = Nc1ncnc2c1ncn2[C@H]1C[C@H](OP(=O)(O)O)[C@@H](COCP(=O)(O)O)O1
b = CNc1nc(Cl)nc2c1ncn2[C@H]1C[C@H](OP(=O)(O)O)[C@@H](COP(=O)(O)O)O1
Query: Pick the one with the larger pIC50: a vs b Returns: label corresponding to the selected item.
Reply: b

I = CCCSc1nc(NC)c2ncn([C@H]3C[C@H](OP(=O)(O)O)[C@@H](COP(=O)(O)O)O3)c2n1
II = CNc1nc(N)nc2c1ncn2[C@@H]1C[C@H](COP(=O)(O)O)[C@@H](OP(=O)(O)O)C1
III = CNc1nc(N)nc2c1ncn2[C@H]1C[C@H](OP(=O)(O)O)[C@@H](COP(=O)(O)O)O1
IV = C=Cc1nc2c(N)ncnc2n1[C@H]1C[C@H](OP(=O)(O)O)[C@@H](COP(=O)(O)O)O1
Query: Output the entries ranked by pIC50 from maximum down to minimum. List each label, following the requested order.
Reply: I, III, II, IV

* * *

assay_system: P2Y purinoceptor 1 (Meleagris gallopavo)
assay_text: In vitro antagonist activity at P2Y1 receptor in turkey erythrocyte membranes.
recorded_metric: IC50 (µM)

molecule=CNc1ccnc2c1ncn2[C@H]1C[C@H](OP(=O)(O)O)[C@@H](COP(=O)(O)O)O1 recorded_metric=IC50 number=0.904

1 = CNc1nc(SC)nc2c1ncn2[C@H]1C[C@H](OP(=O)(O)O)[C@@H](COP(=O)(O)O)O1
2 = Nc1ncnc2c1ncn2[C@@H]1O[C@H](COP(=O)(O)O)[C@@H](OP(=O)(O)O)[C@H]1O
Query: Hey, between 1 and 2 which has a smaller measured IC50? Write the label of whichever entry you select.
Reply: 1
(1: 0.362 µM, 2: 14.9 µM)

* * *

assay_system: P2Y purinoceptor 1 (Meleagris gallopavo)
assay_text: Concentration at which 50% of the maximal effect (stimulation of PLC at P2Y1 receptor in the turkey erythrocyte membranes) is reached
Type: functional, cell membranes
recorded_metric: EC50 (µM)

A = Nc1ncnc2c1ncn2[C@H]1C[C@H](OP(=O)(O)O)[C@@H](COCP(=O)(O)O)O1
B = Nc1ncnc2c1ncn2[C@@H]1O[C@H](COP(=O)(O)O)[C@@H](OP(=O)(O)O)[C@H]1O
Query: Hi, I'm comparing two records. Which one has the lower EC50, A or B ? Please identify the chosen entry by its label.
Reply: B

P = CCSc1nc(N)c2ncn([C@H]3C[C@H](OP(=O)(O)O)[C@@H](COP(=O)(O)O)O3)c2n1
Q = CNc1ncnc2c1ncn2[C@H]1C[C@@H]2OP(=O)(O)OP(=O)(O)OP(=O)(O)OP(=O)(O)OC[C@H]2O1
R = Nc1ncnc2c1ncn2[C@@H]1C[C@H](COP(=O)(O)O)[C@@H](OP(=O)(O)O)C1
Query: Endpoint returns the given molecules ordered by ascending EC50. Reply: labels, ordered per the request.
Reply: Q, P, R
(Q: 0.02 µM, P: 1.98 µM, R: 7.21 µM)

* * *

assay_system: P2Y purinoceptor 1 (Meleagris gallopavo) (UniProt P49652)
assay_text: Agonist activity for stimulation of PLC at P2Y purinoceptor 1 in the turkey erythrocyte membranes.
Assay type: functional, cell membranes
recorded_metric: Increase (%)

molecule=CCCSc1nc(N)c2ncn([C@H]3C[C@H](OP(=O)(O)O)[C@@H](COP(=O)(O)O)O3)c2n1 assay_system="P2Y purinoceptor 1 (Meleagris gallopavo) (UniProt P49652)" number=53

a = Nc1ncnc2c1ncn2[C@@H]1C[C@H](COP(=O)(O)O)[C@@H](OP(=O)(O)O)C1
b = CNc1nc(I)nc2c1ncn2[C@H]1C[C@H](OP(=O)(O)O)[C@@H](COP(=O)(O)O)O1
c = CCCSc1nc(NC)c2ncn([C@H]3C[C@H](OP(=O)(O)O)[C@@H](COP(=O)(O)O)O3)c2n1
Query: Order the entries by their reported Increase, beginning at the minimum. The labels, placed in the requested order, form the answer.
Reply: c, b, a
(c: 7%, b: 13%, a: 27%)

* * *

assay_system: P2Y purinoceptor 1 (Meleagris gallopavo) (UniProt P49652)
assay_text: Antagonist activity for inhibition of PLC elicited by 10 nM 2-MeSADP at P2Y purinoceptor 1 in turkey erythrocyte membranes
Format: functional, cell membranes
recorded_metric: inhibition (%)

Reference set, count: 5
molecule=CNc1ccnc2c1ncn2[C@H]1C[C@H](OP(=O)(O)O)[C@@H](COP(=O)(O)O)O1 recorded_metric=inhibition unit_label=% number=96
molecule=CSc1nc(N)c2ncn([C@H]3C[C@H](OP(=O)(O)O)[C@@H](COP(=O)(O)O)O3)c2n1 recorded_metric=inhibition unit_label=% number=78
molecule=Nc1ncnc2c1ncn2[C@H]1C[C@H](OP(=O)(O)O)[C@@H](COCP(=O)(O)O)O1 recorded_metric=inhibition unit_label=% number=78
molecule=CNc1nc(SC)nc2c1ncn2[C@H]1C[C@H](OP(=O)(O)O)[C@@H](COP(=O)(O)O)O1 recorded_metric=inhibition unit_label=% number=94
molecule=CCCCCCSc1nc(NC)c2ncn([C@H]3C[C@H](OP(=O)(O)O)[C@@H](COP(=O)(O)O)O3)c2n1 recorded_metric=inhibition unit_label=% number=100

P = CCSc1nc(N)c2ncn([C@H]3C[C@H](OP(=O)(O)O)[C@@H](COP(=O)(O)O)O3)c2n1
Q = Nc1ncnc2c1ncn2[C@H]1C[C@H](OP(=O)(O)O)[C@@H](COP(=O)(O)O)S1
Query: Which value of inhibition is smaller, the one for P or the one for Q ? Could you answer with the label of the item you picked?
Reply: Q
(Q: 38%, P: 84%)

* * *

assay_system: P2Y purinoceptor 1 (Meleagris gallopavo)
assay_text: Agonist activity for stimulation of PLC at P2Y purinoceptor 1 in the turkey erythrocyte membranes.
Assay type: functional, cell membranes
recorded_metric: Increase (%)

Some compounds with known Increase results, for comparison:
molecule=CCSc1nc(N)c2ncn([C@H]3C[C@H](OP(=O)(O)O)[C@@H](COP(=O)(O)O)O3)c2n1 assay_system="P2Y purinoceptor 1 (Meleagris gallopavo)" number=16
molecule=Nc1ncnc2c1ncn2[C@@H]1O[C@H](COP(=O)(O)O)[C@@H](OP(=O)(O)O)[C@H]1O assay_system="P2Y purinoceptor 1 (Meleagris gallopavo)" number=44
molecule=Nc1ncnc2c1ncn2[C@@H]1CO[C@H](COP(=O)(O)O)[C@@H](OP(=O)(O)O)C1 assay_system="P2Y purinoceptor 1 (Meleagris gallopavo)" number=100
molecule=CSc1nc(N)c2ncn([C@H]3C[C@H](OP(=O)(O)O)[C@@H](COP(=O)(O)O)O3)c2n1 assay_system="P2Y purinoceptor 1 (Meleagris gallopavo)" number=22
molecule=CNc1nc(N)nc2c1ncn2[C@H]1C[C@H](OP(=O)(O)O)[C@@H](COP(=O)(O)O)O1 assay_system="P2Y purinoceptor 1 (Meleagris gallopavo)" number=4

P = Nc1ncnc2c1ncn2[C@H]1C[C@H](OP(=O)(O)O)[C@@H](COCP(=O)(O)O)O1
Q = CNc1ncnc2c1ncn2[C@H]1C[C@@H]2OP(=O)(O)OP(=O)(O)OP(=O)(O)OP(=O)(O)OC[C@H]2O1
Query: Lab note: check whether P or Q has the lower measured Increase. Identify your pick by its label.
Reply: Q

P = CNc1nc(N)nc2c1ncn2[C@@H]1C[C@H](COP(=O)(O)O)[C@@H](OP(=O)(O)O)C1
Q = Nc1ncnc2c1ncn2[C@H]1C[C@H](OP(=O)(O)O)[C@@H](COP(=O)(O)O)O1
Query: Compare the recorded Increase of P and Q ; state which is larger. State the label of the item chosen.
Reply: P
(P: 26%, Q: 12%)

From: ChEMBL document CHEMBL1132720
